biological target: PTK2 enzyme (Homo sapiens); construct: purchased Invitrogen PV3832; assay: PTK2 enzyme test, Assay 1 (DELFIA, poly-Glu-Tyr substrate, antibody PT60); format: biochemical; conditions: Assay 1 (values without *); 1 h pre-incubation, 2% DMSO
pIC50: −log10 of the molar value.
quantity_measured: pIC50

- compound: "CCC(=O)N[C@@H]1CCCC[C@H]1Nc1nc(Nc2ccc(CNC)cc2OC)ncc1C(F)(F)F"
  pIC50: 8.70
- compound: "COc1cc(N2CCN(C(C)(C)C)CC2)ccc1Nc1ncc(C(F)(F)F)c(N[C@@H]2CCCC[C@H]2N(C)S(C)(=O)=O)n1"
  pIC50: 8.52
- compound: "COc1cc(C(=O)NC2CCCN(C)C2)ccc1Nc1ncc(C(F)(F)F)c(N[C@@H]2CCCC[C@H]2NC(C)=O)n1 (stereo partly shown) [Example I-10]"
  pIC50: 8.52
- compound: "CCN1CCC(NC(=O)c2ccc(Nc3ncc(C(F)(F)F)c(N[C@@H]4CCCC[C@H]4N(C)C(C)=O)n3)c(OC)c2)CC1"
  pIC50: 8.00
- compound: "COc1cc(Nc2ncc(C(F)(F)F)c(N[C@@H]3CCCC[C@H]3N(C)S(C)(=O)=O)n2)ccc1C(=O)NC1CCN(C)CC1"
  pIC50: 8.70

1. COc1cc(C(=O)NC(C)C)ccc1Nc1ncc(C(F)(F)F)c(N[C@@H]2CCCC[C@H]2NC(C)=O)n1
2. COc1cc(C(=O)N(C)C)ccc1Nc1ncc(C(F)(F)F)c(N[C@@H]2CCCC[C@H]2NC(C)=O)n1
Prompt line: Between 1 and 2 , whose measured pIC50 reads higher? Answer with the label corresponding to your selection.
Response line: 1
(1: 8.52, 2: 7.74)

====

Molecular target: PTK2 enzyme (Homo sapiens)
Construct: purchased Invitrogen PV3832
Assay: PTK2 enzyme test, Assay 1 (DELFIA, poly-Glu-Tyr substrate, antibody PT60)
Assay type: biochemical
Settings: Assay 1 (values without *); 1 h pre-incubation, 2% DMSO
Description: This test uses active PTK2 enzyme (Invitrogen Code PV3832) and poly-Glu-Tyr (4:1, Sigma P-0275) as the kinase substrate. The kinase activity is detected through the phosphorylation of the substrate in a DELFIA™ assay. The phosphorylated substrate is detected with the europium-labelled phosphotyrosine antibody PT60 (Perkin Elmer, No.: AD00400). […] The time-delayed europium fluorescence is then measured in a microtitre plate reader (VICTOR^3, Perkin Elmer). […]
pIC50: −log10 of the molar value.
quantity_measured: pIC50

Below: 3 molecules and their reported pIC50.
- molecule: "COc1ccc(Nc2ncc(Br)c(N[C@@H]3CCCC[C@H]3NC(C)=O)n2)c(OC)c1 [Example I-54]"
  pIC50: 8.40
- molecule: "CCN1CCC(NC(=O)c2ccc(Nc3ncc(Br)c(N[C@@H]4CCCC[C@H]4NC(C)=O)n3)c(OC)c2)CC1 [Example I-51]"
  pIC50: 9.00
- molecule: "COc1cc(CN(C)C)ccc1Nc1ncc(C(F)(F)F)c(N[C@@H]2CCCC[C@H]2N(C)S(C)(=O)=O)n1 [Example I-147]"
  pIC50: 9.05

a. COc1cc(C(=O)NC2CCN(C)CC2)ccc1Nc1ncc(C(F)(F)F)c(N[C@@H]2CCCC[C@H]2NS(C)(=O)=O)n1 [Example I-125]
b. COc1cc(N2CCN(C(C)(C)C)CC2)ccc1Nc1ncc(Br)c(N[C@@H]2CCCC[C@H]2N(C)S(C)(=O)=O)n1 [Example I-182]
c. CCN([C@@H]1CCCC[C@H]1Nc1nc(Nc2ccc(C(=O)NC3CCCN(C)C3)cc2OC)ncc1C(F)(F)F)S(C)(=O)=O (stereo partly shown) [Example I-149]
Prompt line: Place the items in sequence of falling pIC50. Return value: ordered labels per request.
Response line: a, c, b

====

target: Xenopus laevis Aurora B/INCENP complex (Xenopus laevis, UniProt Q6DE08); construct: equipped at the N-terminal position with a GST tag (amino acids 60-361); GST (N, cleaved yes); assay: Aurora-B kinase assay (radioactive enzyme inhibition)
Sequence (Q6DE08 60-361): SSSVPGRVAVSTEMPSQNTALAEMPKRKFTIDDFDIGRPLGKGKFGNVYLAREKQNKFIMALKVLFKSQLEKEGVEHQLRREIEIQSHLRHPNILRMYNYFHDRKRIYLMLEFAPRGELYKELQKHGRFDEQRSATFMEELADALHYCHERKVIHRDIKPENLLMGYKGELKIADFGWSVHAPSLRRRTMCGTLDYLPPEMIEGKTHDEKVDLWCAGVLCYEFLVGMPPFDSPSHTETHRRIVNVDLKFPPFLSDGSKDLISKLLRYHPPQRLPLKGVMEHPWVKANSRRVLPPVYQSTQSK
Sequence (O13024 790-847 partner): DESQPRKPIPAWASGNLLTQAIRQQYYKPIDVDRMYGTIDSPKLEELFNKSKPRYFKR
pIC50: −log10 of the molar value.
quantity_measured: pIC50

a. CNC(=O)c1cc(OC)c(Nc2ncc(C(F)(F)F)c(N[C@@H]3CCCC[C@H]3NS(C)(=O)=O)n2)cc1C
b. COc1cc(C(=O)NC2CCN(C)CC2)ccc1Nc1ncc(C(F)(F)F)c(N[C@@H]2CCC[C@H]2NS(C)(=O)=O)n1
c. COc1cc(CN2CCN(C)CC2)ccc1Nc1ncc(C(F)(F)F)c(N[C@@H]2CCCC[C@H]2N(C)S(C)(=O)=O)n1
Prompt line: Sort the entries above by pIC50, largest first. Return value: ordered labels per request.
Response line: b, c, a
(b: 6.58, c: 6.15, a: 5.80)

====

molecular target: PTK2 enzyme (Homo sapiens, UniProt Q05397); construct: purchased Invitrogen PV3832; experiment: PTK2 enzyme test, Assay 2 (DELFIA, poly-Glu-Tyr substrate, antibody PT66); type: biochemical; conditions: Assay 2 (values marked *); 1 h pre-incubation, 0.5% DMSO
Sequence (Q05397 whole entry): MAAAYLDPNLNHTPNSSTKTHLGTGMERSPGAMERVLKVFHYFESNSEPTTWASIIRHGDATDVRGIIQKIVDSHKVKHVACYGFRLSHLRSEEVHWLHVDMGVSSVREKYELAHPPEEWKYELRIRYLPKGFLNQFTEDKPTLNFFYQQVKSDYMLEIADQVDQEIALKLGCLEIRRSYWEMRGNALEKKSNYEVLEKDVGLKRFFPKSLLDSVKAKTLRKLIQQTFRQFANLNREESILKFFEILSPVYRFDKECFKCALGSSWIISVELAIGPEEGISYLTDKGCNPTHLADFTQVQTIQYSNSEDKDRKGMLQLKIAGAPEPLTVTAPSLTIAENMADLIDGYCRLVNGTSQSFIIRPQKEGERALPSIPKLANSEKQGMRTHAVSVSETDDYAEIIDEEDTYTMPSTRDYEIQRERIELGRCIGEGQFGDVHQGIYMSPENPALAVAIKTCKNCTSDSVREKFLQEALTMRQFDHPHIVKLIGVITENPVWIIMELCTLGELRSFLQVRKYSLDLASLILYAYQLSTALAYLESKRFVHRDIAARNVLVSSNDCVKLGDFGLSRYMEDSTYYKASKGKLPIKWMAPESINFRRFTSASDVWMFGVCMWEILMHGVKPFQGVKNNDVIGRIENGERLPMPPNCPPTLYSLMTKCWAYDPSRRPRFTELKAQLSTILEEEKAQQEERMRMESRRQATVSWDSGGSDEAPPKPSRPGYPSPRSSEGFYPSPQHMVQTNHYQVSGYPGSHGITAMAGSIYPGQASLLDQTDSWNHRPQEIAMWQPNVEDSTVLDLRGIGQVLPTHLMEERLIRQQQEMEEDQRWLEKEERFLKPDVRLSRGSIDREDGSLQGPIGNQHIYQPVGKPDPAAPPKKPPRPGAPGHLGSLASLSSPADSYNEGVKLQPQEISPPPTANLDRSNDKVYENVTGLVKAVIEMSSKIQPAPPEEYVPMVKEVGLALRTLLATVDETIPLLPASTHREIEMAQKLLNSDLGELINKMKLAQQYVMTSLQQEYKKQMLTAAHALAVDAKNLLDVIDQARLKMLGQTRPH
quantity_measured: IC50 (nM)

Below: 3 compounds and their reported IC50.
- compound_structure: "CCc1cc(Nc2ncc(C(F)(F)F)c(N[C@@H]3CCC[C@H]3N(C)S(C)(=O)=O)n2)c(OC)cc1N1CCNCC1"
  quantity_measured: "IC50"
  output_unit: "nM"
  endpoint_result: 0.69
- compound_structure: "COc1cc(C(=O)NC2CCN(C)CC2)c(Cl)cc1Nc1ncc(C(F)(F)F)c(N[C@@H]2CCC[C@H]2N(C)S(C)(=O)=O)n1"
  quantity_measured: "IC50"
  output_unit: "nM"
  endpoint_result: 0.29
- compound_structure: "CCc1cc(Nc2ncc(C(F)(F)F)c(N[C@@H]3CCCC[C@H]3N(C)S(C)(=O)=O)n2)c(OC)cc1N1CCN(C)CC1"
  quantity_measured: "IC50"
  output_unit: "nM"
  endpoint_result: 0.71

A. COc1ccc(NC(=O)C2CCN(C)CC2)cc1Nc1ncc(Cl)c(N[C@@H]2CCCC[C@H]2N(C)S(C)(=O)=O)n1
B. COc1ccc(NC(=O)[C@@H]2CCCN2C)cc1Nc1ncc(Cl)c(N[C@@H]2CCCC[C@H]2N(C)S(C)(=O)=O)n1
Prompt line: Record comparison, field IC50: mark the lower of A and B . Answer with the label corresponding to your selection.
Response line: A

====

target: PTK2 enzyme (Homo sapiens, UniProt Q05397); construct: purchased Invitrogen PV3832; assay: PTK2 enzyme test, Assay 2 (DELFIA, poly-Glu-Tyr substrate, antibody PT66); format: biochemical; conditions: Assay 2 (values marked *); 1 h pre-incubation, 0.5% DMSO
quantity_measured: IC50 (pM)

Below: 3 compounds and their reported IC50.
- compound: "CNC(=O)c1cc(Nc2ncc(C(F)(F)F)c(N[C@@H]3CCCC[C@H]3NS(C)(=O)=O)n2)c(OC)cc1F [Example I-194]"
  endpoint_result: 710
- compound: "COc1ccc(C(=O)NC2CCN(C)CC2)cc1Nc1ncc(C(F)(F)F)c(N[C@@H]2CCCC[C@H]2NC(C)=O)n1 [Example I-180]"
  endpoint_result: 430
- compound: "COc1cc(N2CCN(C(C)(C)C)CC2)c(C)cc1Nc1ncc(Cl)c(N[C@@H]2CCCC[C@H]2N(C)S(C)(=O)=O)n1 [Example I-184]"
  endpoint_result: 1000

I. COc1cc(C(=O)NC2CCN(C)CC2)ccc1Nc1ncc(C(F)(F)F)c(N[C@@H]2CC=CC[C@H]2N(C)S(C)(=O)=O)n1 [Example I-151]
II. COc1ccc(C(=O)N(C)C2CCN(C)CC2)cc1Nc1ncc(C(F)(F)F)c(N[C@@H]2CCC[C@H]2N(C)S(C)(=O)=O)n1 [Example I-176]
Prompt line: Record comparison, field IC50: mark the lower of I and II . Answer with the label corresponding to your selection.
Response line: II

====

molecular target: PTK2 enzyme (Homo sapiens); construct: purchased Invitrogen PV3832; experiment: PTK2 enzyme test, Assay 1 (DELFIA, poly-Glu-Tyr substrate, antibody PT60); assay type: biochemical; settings: Assay 1 (values without *); 1 h pre-incubation, 2% DMSO
pIC50: −log10 of the molar value.
quantity_measured: pIC50

Below: 6 compounds and their reported pIC50.
- compound: "COc1cc(C(=O)NC2CCN(C)CC2)ccc1Nc1ncc(C(F)(F)F)c(N[C@@H]2CCCC[C@H]2N(C)C(=O)C(C)C)n1"
  pIC50: 8.05
- compound: "COc1cc(C(=O)NC2CCN(C)CC2)c(F)cc1Nc1ncc(Cl)c(N[C@@H]2CCCC[C@H]2N(C)S(C)(=O)=O)n1"
  pIC50: 8.40
- compound: "COc1cc(C(=O)NC2CCOCC2)c(F)cc1Nc1ncc(C(F)(F)F)c(N[C@@H]2CCCC[C@H]2NC(C)=O)n1"
  pIC50: 8.15
- compound: "COc1cc(C(=O)NC2CCN(C)CC2)c(F)cc1Nc1ncc(C(F)(F)F)c(N[C@@H]2CCCC[C@H]2NS(C)(=O)=O)n1"
  pIC50: 9.00
- compound: "COc1cc(C(=O)NC2CCN(C)CC2)ccc1Nc1ncc(Cl)c(N[C@@H]2CCCC[C@H]2NC(C)=O)n1"
  pIC50: 9.00
- compound: "COc1cc(C(=O)N(C)C)ccc1Nc1ncc(C(F)(F)F)c(N[C@@H]2CCCC[C@H]2N(C)C(C)=O)n1"
  pIC50: 7.51

a. COc1cc(C(=O)N[C@@H]2CCCN(C)C2)ccc1Nc1ncc(C(F)(F)F)c(N[C@@H]2CCCC[C@H]2N(C)C(C)=O)n1
b. COc1cc(C(=O)N(C)C)ccc1Nc1ncc(Br)c(N[C@@H]2CCCC[C@H]2NC(C)=O)n1
c. COc1cc(C(=O)NC2CCN(C)CC2)ccc1Nc1ncc(C(F)(F)F)c(N[C@@H]2CCCC[C@H]2NC(C)=O)n1
d. CC(=O)Nc1ccc(Nc2ncc(C(F)(F)F)c(N[C@@H]3CCCC[C@H]3N(C)S(C)(=O)=O)n2)cc1C
e. COc1cc(C(=O)NC2CCN(C)CC2)ccc1Nc1ncc(C(F)(F)F)c(N[C@@H]2CCC[C@@H]2NC(C)=O)n1
Prompt line: Place the items in sequence of falling pIC50. Return value: ordered labels per request.
Response line: a, c, d, b, e
(a: 9.00, c: 8.70, d: 8.40, b: 8.00, e: 7.42)

a. COc1cc(CN2CCCC2)ccc1Nc1ncc(C(F)(F)F)c(N[C@@H]2CCCC[C@H]2NC(C)=O)n1
b. COc1cc(C(=O)NC2CCCN(C)C2)c(F)cc1Nc1ncc(C(F)(F)F)c(N[C@@H]2CCCC[C@H]2NC(C)=O)n1 (stereo partly drawn)
Prompt line: Between a and b , whose measured pIC50 reads higher? Answer with the label corresponding to your selection.
Response line: a
(a: 9.00, b: 8.70)

1. COc1cc(C(=O)NC2CCN(C)CC2)ccc1Nc1ncc(C(F)(F)F)c(N[C@@H]2CCCC[C@H]2N(C)C(C)=O)n1
2. COc1cc(NC(C)=O)ccc1Nc1ncc(C(F)(F)F)c(N[C@@H]2CCCC[C@H]2N(C)S(C)(=O)=O)n1
3. COc1cc(C(=O)NC2CCN(C)CC2)ccc1Nc1ncc(C(F)(F)F)c(N[C@@H]2CCCC[C@H]2NC(=O)C2CCCC2)n1
4. CCN1CCC(NC(=O)c2cc(OC)c(Nc3ncc(C(F)(F)F)c(N[C@@H]4CCCC[C@H]4NC(C)=O)n3)cc2F)CC1
Prompt line: Place the items in sequence of falling pIC50. Return value: ordered labels per request.
Response line: 1, 4, 2, 3
(1: 9.01, 4: 8.70, 2: 8.40, 3: 7.82)

a. COc1cc(N2CCN(C)CC2)ccc1Nc1ncc(C(F)(F)F)c(N[C@@H]2CCCC[C@H]2N(C)S(C)(=O)=O)n1
b. COc1cc(C(=O)NC2CCOCC2)ccc1Nc1ncc(Cl)c(N[C@@H]2CCCC[C@H]2NC(C)=O)n1
Prompt line: Record comparison, field pIC50: mark the lower of a and b . Answer with the label corresponding to your selection.
Response line: b

P. COc1cc(C(=O)NC2CCN(C)CC2)ccc1Nc1ncc(C(F)(F)F)c(N[C@@H]2CCC[C@H]2N(C)S(C)(=O)=O)n1
Q. COc1cc(C(=O)NC2CCN(C)CC2)ccc1Nc1ncc(C(F)(F)F)c(N[C@@H]2CCCC[C@H]2NC(=O)C(C)C)n1
R. CON[C@H]1CCCC[C@H]1Nc1nc(Nc2ccc(C(=O)NC3CCN(C)CC3)cc2OC)ncc1C(F)(F)F
Prompt line: # ascending order, key=pIC50 Return value: ordered labels per request.
Response line: R, Q, P
(R: 8.30, Q: 8.52, P: 9.09)
